protocol: Plasma prodrug and nucleoside pharmacokinetics after single oral dose in cynomolgus monkeys
Type: in vivo
measurement.setup: single oral 10 mg/kg, normalized to 1 μmol/kg dose, read-out: Plasma prodrug Cmax
measurement.kind: Cmax

The compound listed as CC(C)OC(=O)[C@@H](C)NP(=O)(OC[C@H]1O[C@@H](n2ccc(=O)[nH]c2=O)[C@](C)(Cl)[C@@H]1O)Oc1ccccc1 (single isomer, unassigned; diastereomer 1) [Compound 40i Diastereomer 1] has a reported Cmax of ≤ 15 nM
